# testTarget: Rat FAAH-1 (Rattus norvegicus, UniProt P97612)
# Sequence (P97612 1-579): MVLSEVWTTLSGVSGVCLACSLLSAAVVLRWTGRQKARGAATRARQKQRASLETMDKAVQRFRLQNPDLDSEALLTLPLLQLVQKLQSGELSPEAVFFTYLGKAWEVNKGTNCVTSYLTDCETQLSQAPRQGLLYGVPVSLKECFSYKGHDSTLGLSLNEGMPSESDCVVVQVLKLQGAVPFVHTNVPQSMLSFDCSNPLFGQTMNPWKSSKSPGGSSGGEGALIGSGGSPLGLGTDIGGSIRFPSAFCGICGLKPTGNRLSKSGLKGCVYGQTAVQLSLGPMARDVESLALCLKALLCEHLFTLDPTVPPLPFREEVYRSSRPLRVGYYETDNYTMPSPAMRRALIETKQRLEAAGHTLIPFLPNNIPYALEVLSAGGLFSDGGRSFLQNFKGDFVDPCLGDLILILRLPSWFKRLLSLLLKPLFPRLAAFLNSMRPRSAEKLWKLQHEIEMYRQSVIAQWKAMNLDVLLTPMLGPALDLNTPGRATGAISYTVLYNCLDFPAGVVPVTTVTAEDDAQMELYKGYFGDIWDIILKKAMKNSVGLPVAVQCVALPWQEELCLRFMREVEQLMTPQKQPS
# assayText: Assay Method 2: rat FAAH-1 assay, 3H-anandamide hydrolysis in homogenate of SK-N-MC cells transfected with rat FAAH
Counter-ions that a name gives are not always drawn.
Task for the reader: assign each of the following compounds its reported pIC50.
Notebook: values listed as pIC50 are -log10 of the concentration (mol/L).

Reported pIC50 for CCOc1ccc(-c2cc(NCC(O)c3ccccc3)ncn2)cc1 (stereo not drawn) : what is it?
6.43

// pIC50 lookup, key: CSc1nc(NC[C@H](O)c2ccccc2)cc(-c2ccc(C(F)(F)F)c(Cl)c2)n1 [Example 60, trifluoroacetic acid salt]
7.55

Sample C[C@H](Nc1cc(-c2ccc(OC(F)(F)F)cc2)ncn1)[C@H](O)c1ccccc1 — what was its pIC50?
7.26

// returns reported pIC50 for input Nc1nc(NC[C@H](O)c2ccccc2)cc(-c2ccc(C(F)(F)F)c(Cl)c2)n1 [Example 61, trifluoroacetic acid salt]
7.55

State the recorded pIC50 for this entry: O[C@@H](CNc1cc(-c2ccc(C(F)(F)F)c(Cl)c2)nc(N2CCC2)n1)c1ccccc1 [Example 161, trifluoroacetic acid salt]
6.24

Give its pIC50 value. Item: CS(=O)(=O)c1ccc(-c2cc(NC[C@H](O)c3ccccc3)ncn2)cc1
6.85

Entry under review: CC(C)Oc1ccc(-c2cc(NCC(O)c3ccccc3)ncn2)cc1 (stereo not drawn) . Reported pIC50?
6.42

Name the reported pIC50 value associated with the compound O[C@@H](CNc1cc(-c2ccc(OCC3CC3)cc2)ncn1)c1ccccc1 [Example 32, trifluoroacetic acid salt]
6.00

# input compound: O[C@@H](CNc1cc(-c2ccc(OC(F)(F)F)c(Cl)c2)ncn1)c1ccc(F)cc1 [Example 175, trifluoroacetic acid salt] ; wanted: its pIC50
8.52

What measured pIC50 goes with O[C@@H](CNc1cc(-c2ccc(OC(F)(F)F)c(Cl)c2)ncn1)c1ccccc1 ?
7.70

Look at this compound and give its reported pIC50. OC(CNc1cc(-c2ccc(C(F)(F)F)c(Cl)c2)ncn1)c1ccc(-c2ccccn2)cc1 (stereo not drawn)
6.07

Using the record for CC(C)COc1ccc(-c2cc(NC[C@H](O)c3ccccc3)ncn2)cc1 [Example 37, trifluoroacetic acid salt] , report its pIC50.
5.10

Suppose we examine the compound Cc1c(NC[C@H](O)c2ccccc2)ncnc1-c1ccc(C(F)(F)F)c(F)c1 [Example 48, trifluoroacetic acid salt] ; what pIC50 value has been reported?
5.82

# lookup: pIC50 of OC(CNc1cc(-c2ccc(OC(F)(F)F)cc2)ncn1)c1cc(Cl)cc(Cl)c1 (stereo not drawn)
6.00
